# testDetails: soluble on expression in E. coli; label from the status in PepcDB or PDB records
measurementType: soluble on expression in E. coli

INSERT INTO measurements (seqstring, valuemeasured) VALUES
  ('MGSDKIHHHHHHMNQIIPTSANGCIPNVYFMGRWTTQTVESKPAMYTTNLGAQILFEVQNADYFTLEAVINPLSAPQTLSIYIDDELHLTPLTRSKNDFKLSSNQSHIVRIYFTGNTDQDEIWLGNDGLTIKDITIASGTLAAIKPAGPLVAFIGDSITAGCWVRSKAPSIGYGADLNYAAQLSRALDWEDYRIAYSAAGIIRYGTGGVPPAGKFVKYVNFSVKAPRINPDLVLINLGTNDARYEDDVFEMYFVWFINEVKKQFPHARIIIITPFNQAHSHVIKNVAKALKIELIPTLDWVIETNDEVHPNVEGSKAISDHLVAWFTEPQNRLQSE', 'not soluble'),
  ('MTKNKSVARDERYYKAYLESRTISRRGLFRGLLKGVQPSTTTAPSDITAPPPLRPPYAIDEPHFQQSCTGCGVCVAACEENLIVMVNQRPALNFSTPYFSTPYCSRCQACSTACQTGALSSAEFHIAARPSVKNICQNTYIYCDSCADYCEKQALIWQANQPPTLVTELCDGCGECVFRCPARILEMQI', 'not soluble'),
  ('MAHHHHHHMNLIVHDLDFMKRILLNDERKWGEESAPGEGRTESSHQPKIITIVLNNTLCAHSAKFIANSDVLICADGGANRLYNLCQSLATERGAIDDEGSSLKGEEDKNTALHASHTNERSHHVSGRHTISDLFNMPVEKKEKALKRPTEIVPHIICGDFDSINAHVYSYYKNKSVIFEKCANQENTDLDKCIDVIRGYIRTNDKILILGATGNRFDHTCANISCLYKNASLNSLYLIGENNFLFLLQQGSHIIHVSPDVFCKGCGILPFGGKCTIKTEGLKYNLNDECLSFDTLISSSNEVVQREVKIFNDSPVVWSAQLI', 'not soluble');
